Kindly state pIC50 for each of the entries shown.
Procedure Summary: Inhibition of H+/K+ ATPase in hog gastric mucosa
Format: tissue-based, Sus scrofa
Reply with the value as a number alone.

IN: Entry Cc1nc2c3c(c(C(=O)NC4CC4)cn2c1C)CCC(c1ccccc1)O3 (racemic) : reported pIC50 = ?
OUT: 6

IN: Entry Cc1nc2c3c(c(C(=O)NC4CCC4)cn2c1C)CCC(c1ccccc1)O3 (racemic) : reported pIC50 = ?
OUT: 5.2

IN: Entry Cc1nc2c3c(c(C(=O)N4CCCC4)cn2c1C)CC[C@@H](c1ccccc1)O3 : reported pIC50 = ?
OUT: 6.4

IN: Entry Cc1nc2c3c(c(C(=O)O)cn2c1C)CCC(c1ccccc1)O3 (racemic) : reported pIC50 = ?
OUT: 5.2

IN: Entry Cc1ccccc1[C@@H]1CCc2c(C(=O)N(C)C)cn3c(C)c(C)nc3c2O1 : reported pIC50 = ?
OUT: 6.3

IN: Entry Cc1nc2c3c(c(C(=O)N(C)C)cn2c1C)CC[C@H](c1ccccc1F)O3 : reported pIC50 = ?
OUT: 5.3

IN: Entry Cc1nc2c3c(c(C(=O)Nc4ccccc4)cn2c1C)CCC(c1ccccc1)O3 (racemic) : reported pIC50 = ?
OUT: 5.5

IN: Entry CON(C)C(=O)c1cn2c(C)c(C)nc2c2c1CCC(c1ccccc1)O2 (racemic) : reported pIC50 = ?
OUT: 5.8

IN: Entry CNC(=O)c1cn2c(C)c(C)nc2c2c1CC[C@@H](c1ccccc1)O2 : reported pIC50 = ?
OUT: 6.3

IN: Entry Cc1nc2c3c(c(C(=O)N(C)C)cn2c1C)CC[C@@H](c1ccccc1F)O3 : reported pIC50 = ?
OUT: 6.3

IN: Entry Cc1nc2c3c(c(C(=O)NC4CC4)cn2c1C)CC[C@H](c1ccccc1)O3 : reported pIC50 = ?
OUT: 5.1

* * *

Test system: Rattus norvegicus
Procedure Summary: Inhibition of pentagastrin-stimulated acid secretion in perfused Ghosh Schild rat stomach at 1 umol/kg, intraduodenal
Type: functional
Parameters: scale not given: the % may be the effect or the level left
Use 1.0 when the recorded Activity is no lower than 50%; use 0.0 when it is lower.

IN: Hi, just wondering whether CCN(CC)C(=O)c1cn2c(C)c(C)nc2c2c1CCC(c1ccccc1)O2 (racemic) shows Activity of 50% or higher.
OUT: 0.0

IN: Hi, just wondering whether COCCNC(=O)c1c(C)nc2c3c(c(C(=O)N(C)C)cn12)CCC(c1ccccc1)O3 (racemic) shows Activity of 50% or higher.
OUT: 1.0

IN: Hi, just wondering whether CCOC(=O)c1cn2c(C)c(C)nc2c2c1CCC(c1ccccc1)O2 (racemic) shows Activity of 50% or higher.
OUT: 0.0

IN: Hi, just wondering whether CC(=O)c1c(C)nc2c3c(c(C(=O)N(C)C)cn12)CCC(c1ccccc1)O3 (racemic) shows Activity of 50% or higher.
OUT: 1.0

IN: Hi, just wondering whether Cc1nc2c3c(c(C(=O)N4CCCC4)cn2c1C)CCC(c1ccccc1)O3 (racemic) shows Activity of 50% or higher.
OUT: 0.0

* * *

Tested on: Rattus norvegicus
Procedure Summary: Inhibition of pentagastrin-stimulated acid secretion in perfused Ghosh Schild rat stomach at 1 umol/kg, intraduodenal
Assay type: functional
Parameters: scale not given: the % may be the effect or the level left
Use Condition met when the recorded Activity is no lower than 30%; use Condition not met when it is lower.

IN: Hi, just wondering whether Cc1nc2c3c(c(C(=O)N(C)C)cn2c1C)CCC(c1cccs1)O3 (racemic) shows Activity of 30% or higher.
OUT: Condition met

IN: Hi, just wondering whether Cc1nc2c3c(c(C(=O)N4CCNCC4)cn2c1C)CCC(c1ccccc1)O3 (racemic) shows Activity of 30% or higher.
OUT: Condition met

IN: Hi, just wondering whether Cc1nc2c3c(c(C(=O)N4CC4)cn2c1C)CCC(c1ccccc1)O3 (racemic) shows Activity of 30% or higher.
OUT: Condition met

IN: Hi, just wondering whether Cc1nc2c3c(c(C(=O)N(C)C)cn2c1C)CCC(c1ccccc1F)O3 (racemic) shows Activity of 30% or higher.
OUT: Condition met

IN: Hi, just wondering whether Cc1nc2c3c(c(C(=O)N(C)C)cn2c1CN(C)C)CCC(c1ccccc1)O3 (racemic) shows Activity of 30% or higher.
OUT: Condition not met

IN: Hi, just wondering whether Cc1nc2c3c(c(C(=O)N4CCC4)cn2c1C)CCC(c1ccccc1)O3 (racemic) shows Activity of 30% or higher.
OUT: Condition met

IN: Hi, just wondering whether Cc1nc2c3c(c(C(=O)N(C)C)cn2c1CO)CCC(c1ccccc1)O3 (racemic) shows Activity of 30% or higher.
OUT: Condition met

IN: Hi, just wondering whether Cc1nc2c3c(ccn2c1C)CCC(c1ccccc1)O3 (racemic) shows Activity of 30% or higher.
OUT: Condition not met

* * *

Procedure Summary: Distribution coefficient, log D of the compound
Type: physicochemical
Cond: octanol/water
Binarize logD at 3; below is True, at or above is False.

IN: Just wondering, is logD of CCOC(=O)c1cn2c(C)c(C)nc2c2c1CCC(c1ccccc1)O2 (racemic) below 3?
OUT: False

IN: Just wondering, is logD of Cc1nc2c3c(c(C(=O)N4CCC4)cn2c1C)CCC(c1ccccc1)O3 (racemic) below 3?
OUT: True

IN: Just wondering, is logD of Cc1nc2c3c(c(C(=O)N(C)C)cn2c1C)CCC(c1ccccc1F)O3 (racemic) below 3?
OUT: True

IN: Just wondering, is logD of CC(=O)c1c(C)nc2c3c(c(C(=O)N(C)C)cn12)CCC(c1ccccc1)O3 (racemic) below 3?
OUT: True

IN: Just wondering, is logD of CC#CC(=O)c1c(C)nc2c3c(c(C(=O)N(C)C)cn12)CCC(c1ccccc1)O3 (racemic) below 3?
OUT: False

IN: Just wondering, is logD of Cc1nc2c3c(c(C(=O)N(C)C)cn2c1C)CCC(c1ccc(F)cc1)O3 (racemic) below 3?
OUT: True

IN: Just wondering, is logD of CCOc1ccc(NC(=O)c2cn3c(C)c(C)nc3c3c2CCC(c2ccccc2)O3)cc1 (racemic) below 3?
OUT: False

IN: Just wondering, is logD of Cc1nc2c3c(c(C(=O)O)cn2c1C)CCC(c1ccccc1)O3 (racemic) below 3?
OUT: True

IN: Just wondering, is logD of Cc1nc2c3c(c(C(=O)N(C)C)cn2c1Br)CCC(c1ccccc1)O3 (racemic) below 3?
OUT: False

IN: Just wondering, is logD of Cc1nc2c3c(ccn2c1C)CCC(c1ccccc1)O3 (racemic) below 3?
OUT: False

IN: Just wondering, is logD of Cc1nc2c3c(c(C(=O)NS(C)(=O)=O)cn2c1C)CCC(c1ccccc1)O3 (racemic) below 3?
OUT: True

IN: Just wondering, is logD of Cc1nc2c3c(c(C(=O)Nc4ccccc4)cn2c1C)CCC(c1ccccc1)O3 (racemic) below 3?
OUT: False

IN: Just wondering, is logD of CCN(CC)C(=O)c1cn2c(C)c(C)nc2c2c1CCC(c1ccccc1)O2 (racemic) below 3?
OUT: False

IN: Just wondering, is logD of Cc1nc2c3c(c(C(=O)N(C)C)cn2c1C)CCC(c1cccs1)O3 (racemic) below 3?
OUT: True

IN: Just wondering, is logD of Cc1nc2c3c(c(C(=O)NC4CCC4)cn2c1C)CCC(c1ccccc1)O3 (racemic) below 3?
OUT: False

IN: Just wondering, is logD of Cc1nc2c3c(c(C(=O)N(C)C)cn2c1CO)CCC(c1ccccc1)O3 (racemic) below 3?
OUT: True

IN: Just wondering, is logD of Cc1nc2c3c(c(C(=O)N4CCNCC4)cn2c1C)CCC(c1ccccc1)O3 (racemic) below 3?
OUT: True

IN: Just wondering, is logD of Cc1nc2c3c(c(C(=O)N4CC(O)C4)cn2c1C)CCC(c1ccccc1)O3 (racemic) below 3?
OUT: True

IN: Just wondering, is logD of CNC(=O)c1cn2c(C)c(C)nc2c2c1CCC(c1ccccc1)O2 (racemic) below 3?
OUT: True

* * *

Procedure Summary: Inhibition of H+/K+ ATPase in hog gastric mucosa
Type: tissue-based, Sus scrofa
Quantity Name: pIC50
Reply with the value as a number alone.

IN: Entry Cc1nc2c3c(c(C(=O)N4CC(O)C4)cn2c1C)CCC(c1ccccc1)O3 (racemic) : reported pIC50 = ?
OUT: 5.9

IN: Entry Cc1nc2c3c(c(C4=NCCO4)cn2c1C)CCC(c1ccccc1)O3 (racemic) : reported pIC50 = ?
OUT: 6

IN: Entry Cc1nc2c3c(c(C(=O)N4CCCC4)cn2c1C)CCC(c1ccccc1)O3 (racemic) : reported pIC50 = ?
OUT: 5.8

IN: Entry Cc1nc2c3c(c(C(=O)N(C)C)cn2c1Br)CC[C@@H](c1ccccc1)O3 : reported pIC50 = ?
OUT: 5

IN: Entry Cc1nc2c3c(c(C(=O)N4CCCC4)cn2c1C)CC[C@H](c1ccccc1)O3 : reported pIC50 = ?
OUT: 4.5

IN: Entry Cc1nc2c3c(c(C(=O)N(C)C)cn2c1C)CCC(c1ccccc1F)O3 (racemic) : reported pIC50 = ?
OUT: 5.9

IN: Entry CCc1c(C)nc2c3c(c(C(=O)N(C)C)cn12)CC[C@@H](c1ccccc1)O3 : reported pIC50 = ?
OUT: 5.5

IN: Entry CCN(CC)C(=O)c1cn2c(C)c(C)nc2c2c1CCC(c1ccccc1)O2 (racemic) : reported pIC50 = ?
OUT: 5.2

These data points were gathered from ChEMBL document CHEMBL1138298.
